Here, each record is paired with measured melting point data.

// melting point lookup, key: CC(C)(C)c1ccc2oc(C(=O)CBr)cc2c1
100 to 102 °C

Report melting point for COc1cc2c(Nc3ccc(Cl)cc3F)ncnc2cc1OCCN1CCNC1=O please.
> 250 °C

Value lookup for melting point; key = CC(=O)OC1CC2CCC3C(CCC4(C)C(O)C(N5CCCCC5)CC34)C2(C)CC1N1CCCCC1 (stereo not drawn)
183 °C

----------
compounds and their reported melting point

Solved entries (count: 3):
Give the measured melting point of NC1CCN(c2c(F)cc3c(=O)c(C(=O)O)cn(C4CC4)c3c2Cl)C1 (stereo not drawn) .
241 to 242 °C

Given COc1ccc(N2CCN(C3CCN(CC(O)COc4cccc5[nH]c(C)cc45)CC3)C2=O)cc1 (stereo not drawn) , state its recorded melting point.
155 to 157 °C

Which melting point value belongs to NNC(=O)NN=Cc1ccc(Cl)cc1 ?
188 to 189 °C

Further cases:
What does the record list as melting point for Nc1ccn([C@H]2C=C[C@@H](O)CC2)c(=O)n1 (racemic) ?
224 to 226 °C

What value of melting point has been reported for the following compound? CCCCc1nc(=O)n2ncc(Br)c2[nH]1
188 °C

Consider the compound shown here: C=CCNC(=O)C=Cc1cccc(F)c1 What is its recorded melting point?
84.5 to 87 °C

Which value of melting point has been reported for Cc1cc(O)nn1-c1ccc(Cl)c(Cl)c1 in the records?
208 to 211 °C

So what does the record say about melting point for CCC1(C)C(=O)c2c(cc(OC)c(Cl)c2Cl)C1c1ccccc1 (stereo not drawn) ?
132 °C

Request the reported melting point associated with O=C1CC(S(=O)Cc2ccccc2)N1CCCc1ccccc1 (stereo not drawn)
93 to 96 °C

Report melting point for Cc1coc(NC(=S)Nc2ccc(Cl)cc2C)n1 please.
214 °C

May I ask what melting point has been recorded for CCOC(=O)C1=C(N)NC(N)=C(C(=O)OCC)C1c1ccccc1-c1ccccc1 ?
215 °C

Report melting point for CCOC(=O)C1(Br)Oc2ccccc2OC1Br (stereo not drawn) please.
102 °C

GET /values?readout=melting point&item= Cc1cccc(-c2[nH]c(C(C)C)nc2-c2cccc(-c3ccncc3)c2)n1
84 to 86 °C
